- Assay System: Phospholipid hydroperoxide glutathione peroxidase GPX4 (Homo sapiens) (UniProt P36969)
- Sequence (P36969 whole entry, looked up): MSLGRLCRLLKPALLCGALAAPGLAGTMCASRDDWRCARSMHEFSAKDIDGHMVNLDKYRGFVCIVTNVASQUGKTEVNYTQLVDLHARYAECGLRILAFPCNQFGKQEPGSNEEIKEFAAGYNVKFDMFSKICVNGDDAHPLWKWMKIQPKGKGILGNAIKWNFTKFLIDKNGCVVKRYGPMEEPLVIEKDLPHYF
- Assay Protocol: Primary qHTS Assay for Inhibitors of Recombinant Selenoprotein Glutathione Peroxidase 4 (GPX4) (AID 1845192); further: nearly all actives have a fitted effect of over 65% in size
- Settings: recombinant GPX4, GR-coupled NADPH fluorescence, 15 min; series mostly up to 50 µM
Results filed as inconclusive are left out. The source made the active and inactive calls. The call rests on the fitted dose curve; in most records, active means well fitted inhibition curve with a large enough effect; inconclusive means small, poorly fitted or top-dose-only effect; inactive means flat fitted curve, though single readings scatter.
Property Label: outcome

Solved cases (6 shown):
Compound | outcome
CC1=C(/C=C/C(C)=C/C=C/C(C)=C/C(=O)O)C(C)(C)CCC1 | inactive
CC12CCC(CC1)C(C)(C)O2 | inactive
O=c1cc[nH]c(=O)[nH]1 | inactive
COc1ccccc1O | inactive
Cc1cc(O)cc2c1O[C@](C)(CCC[C@H](C)CCC[C@H](C)CCCC(C)C)CC2 | inactive
O=C1NS(=O)(=O)c2ccccc21 | inactive

What does the data say about its outcome? Entry: `C[C@H](N)[C@H](O)c1cccc(O)c1`
inactive

Would you mind telling me what outcome value was observed for `COc1ccc(Cl)cc1C(=O)NCCc1ccc(S(=O)(=O)NC(=O)NC2CCCCC2)cc1` ?
inactive

GET /values?readout=outcome&item= `O=C(O)COc1nn(Cc2ccccc2)c2ccccc12`
inactive

Record request: outcome value, item `CN(C)CC[C@@H](c1ccc(Cl)cc1)c1ccccn1`
inactive

Which outcome is listed for `CC1=C(CC(=O)O)c2cc(F)ccc2/C1=C\c1ccc(S(C)(=O)=O)cc1` ?
inactive
